- Measured on: Neprilysin (Rattus norvegicus)
- Sequence (P07861 whole entry): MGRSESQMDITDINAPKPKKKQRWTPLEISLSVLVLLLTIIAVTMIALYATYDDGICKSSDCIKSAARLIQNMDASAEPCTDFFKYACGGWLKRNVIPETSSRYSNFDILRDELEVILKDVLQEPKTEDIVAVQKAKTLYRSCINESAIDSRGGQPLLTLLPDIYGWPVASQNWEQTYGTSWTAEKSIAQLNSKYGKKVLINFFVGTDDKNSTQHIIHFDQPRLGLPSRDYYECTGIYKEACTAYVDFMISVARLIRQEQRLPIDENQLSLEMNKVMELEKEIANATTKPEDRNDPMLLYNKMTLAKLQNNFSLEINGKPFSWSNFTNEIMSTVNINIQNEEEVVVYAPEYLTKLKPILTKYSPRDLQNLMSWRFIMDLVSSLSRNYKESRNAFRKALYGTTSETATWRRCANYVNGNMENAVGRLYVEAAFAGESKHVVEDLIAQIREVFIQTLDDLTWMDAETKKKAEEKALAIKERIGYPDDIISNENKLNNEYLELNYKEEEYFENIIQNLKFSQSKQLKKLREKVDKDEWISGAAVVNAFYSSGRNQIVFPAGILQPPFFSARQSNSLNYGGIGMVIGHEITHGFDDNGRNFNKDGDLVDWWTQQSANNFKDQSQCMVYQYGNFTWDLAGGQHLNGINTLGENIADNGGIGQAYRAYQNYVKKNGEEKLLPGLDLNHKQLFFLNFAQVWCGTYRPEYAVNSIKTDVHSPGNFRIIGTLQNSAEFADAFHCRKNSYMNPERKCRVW
- Experiment description: In vitro inhibitory activity against neutral endopeptidase (NEP)
Entries and their measured IC50 follow.
Output spec: scalar in nM, unitless text.

Example cases with answers are listed next.
INSERT INTO measurements (smiles_record, readout_name, quantitative_result) VALUES
  ('O=C(Nc1nn[nH]n1)[C@H](Cc1ccc(-c2ccccc2)cc1)NCP(=O)(O)O', 'IC50', 1.4),
  ('O=P(O)(O)CN[C@@H](Cc1ccccc1)c1nnn[nH]1', 'IC50', 26);

Next item in the queue.
Suppose we examine the molecule `COc1cc(C[C@H](NCP(=O)(O)O)c2nnn[nH]2)ccc1-c1ccccc1` ; what IC50 value has been reported? 1.5

====

- Measured on: Neprilysin (Rattus norvegicus, UniProt P07861)
- Sequence (P07861 whole entry): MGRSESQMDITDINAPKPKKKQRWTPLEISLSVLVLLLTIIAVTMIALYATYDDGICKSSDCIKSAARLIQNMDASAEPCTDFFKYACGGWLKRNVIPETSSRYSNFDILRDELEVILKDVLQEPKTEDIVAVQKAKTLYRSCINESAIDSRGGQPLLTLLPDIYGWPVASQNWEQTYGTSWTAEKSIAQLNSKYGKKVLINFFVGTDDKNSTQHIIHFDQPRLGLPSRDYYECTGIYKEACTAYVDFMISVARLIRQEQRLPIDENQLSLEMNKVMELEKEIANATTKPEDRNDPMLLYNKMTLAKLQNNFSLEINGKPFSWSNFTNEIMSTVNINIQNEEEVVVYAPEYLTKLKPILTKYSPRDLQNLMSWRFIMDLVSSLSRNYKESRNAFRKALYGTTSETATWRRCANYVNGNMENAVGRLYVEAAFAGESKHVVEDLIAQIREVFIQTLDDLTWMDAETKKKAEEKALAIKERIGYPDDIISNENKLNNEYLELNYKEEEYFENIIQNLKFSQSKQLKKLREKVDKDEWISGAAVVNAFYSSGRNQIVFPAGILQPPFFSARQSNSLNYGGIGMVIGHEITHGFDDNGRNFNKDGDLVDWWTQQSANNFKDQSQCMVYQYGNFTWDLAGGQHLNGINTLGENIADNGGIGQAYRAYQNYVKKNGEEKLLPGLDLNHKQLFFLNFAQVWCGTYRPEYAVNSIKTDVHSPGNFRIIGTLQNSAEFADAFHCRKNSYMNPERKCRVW
Readout name: pIC50
Reminder that pIC50 means the negative base-10 logarithm of the concentration expressed in mol/L.

INSERT INTO measurements (smiles_record, readout_name, quantitative_result) VALUES
  ('CC(C)Oc1ccc(C[C@H](NCP(=O)(O)O)c2nnn[nH]2)cc1', 'pIC50', 7.82);

Suppose we examine the molecule `NC(=O)[C@H](Cc1ccc(-c2ccccc2)cc1)NCP(=O)(O)O` ; what pIC50 value has been reported? 5.89

Suppose we examine the molecule `O=C(O)CCNC(=O)[C@H](Cc1ccc(-c2ccccc2)cc1)NCP(=O)(O)O` ; what pIC50 value has been reported? 5.72

Suppose we examine the molecule `CN(CP(=O)(O)O)[C@@H](Cc1ccc(-c2ccccc2)cc1)c1nnn[nH]1` ; what pIC50 value has been reported? 6.28

Suppose we examine the molecule `O=C(O)CC[C@H](Cc1ccc(-c2ccccc2)cc1)NCP(=O)(O)O` ; what pIC50 value has been reported? 6.19
